Quick reference for protein stability index among some variants
B1: C2CD2L (parent)
chain: LTLKVLRSSSCGDTELLGQATLPV

# Variants of: B1
# TEST METHOD NOTES: protein stability index of a GFP-peptide fusion (GPS, HEK-293T) (PSI 1-6); higher = more stable;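 note: lentivirally expressed fusions sorted by FACS into six bins by GFP to DsRed ratio, PSI derived from sequencing read proportions per bin multiplied by bin number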
# MEASUREMENT CONDITIONS: c terminus: a fixed tail appended
Number, no unit, nothing else.

Here is how some variants turned out for protein stability index.
>  <ALTERATION>
R7L

>  <protein stability index>
3.52

$$$$
>  <ALTERATION>
T14M

>  <protein stability index>
2.03

$$$$
>  <ALTERATION>
S8W

>  <protein stability index>
4.16

$$$$

Record L17A . Reported protein stability index: 2.08

Looking up Q19I , I see its protein stability index listed as 4.42

The recorded protein stability index for L3Q is 2.87

Lab note: G18S gave protein stability index of 1.97

Notebook: L17S , protein stability index read as 1.28

// recorded protein stability index for L22V : 2.75

The recorded protein stability index for entry S10D equals 2

Input L17F . Output protein stability index: 2.92
